Form field: IC50 (one value per entry).
MEASURED ON: human SIRPα v2 expressed on cells (CHOK1 stable line KYinno KC-1720) (human) (UniProt P78324)
PROCEDURE SUMMARY: competitive FACS, mFc-CD47 ECD on CHOK1-human SIRPα v2 cells
Value expressed in nM; do not type the unit.

Examples from the recorded data:
BINDER	UNIT ANNOTATION	IC50
hu1H9G4 (antibody, V domains shown) VH: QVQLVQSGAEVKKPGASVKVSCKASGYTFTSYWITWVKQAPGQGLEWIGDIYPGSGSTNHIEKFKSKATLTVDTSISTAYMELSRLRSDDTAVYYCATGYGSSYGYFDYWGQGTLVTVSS VL: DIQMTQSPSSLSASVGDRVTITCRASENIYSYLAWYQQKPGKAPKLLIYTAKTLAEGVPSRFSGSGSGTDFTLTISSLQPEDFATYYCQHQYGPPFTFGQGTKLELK	nM	5.61
hu025.023 (antibody, V domains shown) VH: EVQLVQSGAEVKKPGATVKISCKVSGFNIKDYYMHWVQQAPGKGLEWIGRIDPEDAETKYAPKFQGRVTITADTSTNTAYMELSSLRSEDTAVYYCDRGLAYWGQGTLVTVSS VL: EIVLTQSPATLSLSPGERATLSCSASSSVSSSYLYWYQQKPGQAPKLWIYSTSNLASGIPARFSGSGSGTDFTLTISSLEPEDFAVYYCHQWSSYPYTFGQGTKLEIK	nM	0.75
hu025.060 (antibody, V domains shown) VH: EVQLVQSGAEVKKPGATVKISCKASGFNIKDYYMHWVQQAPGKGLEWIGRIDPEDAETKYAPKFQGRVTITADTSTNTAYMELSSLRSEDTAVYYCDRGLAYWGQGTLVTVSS VL: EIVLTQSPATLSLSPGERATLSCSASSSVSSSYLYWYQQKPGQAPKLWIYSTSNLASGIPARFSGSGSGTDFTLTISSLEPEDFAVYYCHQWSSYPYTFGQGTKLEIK	nM	0.77

Now let's try a different one.
For 025c (antibody, V domains shown) VH: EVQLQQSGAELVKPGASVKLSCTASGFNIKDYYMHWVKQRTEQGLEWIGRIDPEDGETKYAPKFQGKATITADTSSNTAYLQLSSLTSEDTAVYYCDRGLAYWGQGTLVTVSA VL: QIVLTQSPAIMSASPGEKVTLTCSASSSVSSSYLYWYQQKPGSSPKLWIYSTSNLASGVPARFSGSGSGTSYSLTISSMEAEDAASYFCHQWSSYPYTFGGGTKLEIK , what is its reported IC50?
0.63
